# TARGET SYSTEM: Murine NOS-2 (iNOS) (Mus musculus, UniProt P29477)
# Sequence (P29477 whole entry): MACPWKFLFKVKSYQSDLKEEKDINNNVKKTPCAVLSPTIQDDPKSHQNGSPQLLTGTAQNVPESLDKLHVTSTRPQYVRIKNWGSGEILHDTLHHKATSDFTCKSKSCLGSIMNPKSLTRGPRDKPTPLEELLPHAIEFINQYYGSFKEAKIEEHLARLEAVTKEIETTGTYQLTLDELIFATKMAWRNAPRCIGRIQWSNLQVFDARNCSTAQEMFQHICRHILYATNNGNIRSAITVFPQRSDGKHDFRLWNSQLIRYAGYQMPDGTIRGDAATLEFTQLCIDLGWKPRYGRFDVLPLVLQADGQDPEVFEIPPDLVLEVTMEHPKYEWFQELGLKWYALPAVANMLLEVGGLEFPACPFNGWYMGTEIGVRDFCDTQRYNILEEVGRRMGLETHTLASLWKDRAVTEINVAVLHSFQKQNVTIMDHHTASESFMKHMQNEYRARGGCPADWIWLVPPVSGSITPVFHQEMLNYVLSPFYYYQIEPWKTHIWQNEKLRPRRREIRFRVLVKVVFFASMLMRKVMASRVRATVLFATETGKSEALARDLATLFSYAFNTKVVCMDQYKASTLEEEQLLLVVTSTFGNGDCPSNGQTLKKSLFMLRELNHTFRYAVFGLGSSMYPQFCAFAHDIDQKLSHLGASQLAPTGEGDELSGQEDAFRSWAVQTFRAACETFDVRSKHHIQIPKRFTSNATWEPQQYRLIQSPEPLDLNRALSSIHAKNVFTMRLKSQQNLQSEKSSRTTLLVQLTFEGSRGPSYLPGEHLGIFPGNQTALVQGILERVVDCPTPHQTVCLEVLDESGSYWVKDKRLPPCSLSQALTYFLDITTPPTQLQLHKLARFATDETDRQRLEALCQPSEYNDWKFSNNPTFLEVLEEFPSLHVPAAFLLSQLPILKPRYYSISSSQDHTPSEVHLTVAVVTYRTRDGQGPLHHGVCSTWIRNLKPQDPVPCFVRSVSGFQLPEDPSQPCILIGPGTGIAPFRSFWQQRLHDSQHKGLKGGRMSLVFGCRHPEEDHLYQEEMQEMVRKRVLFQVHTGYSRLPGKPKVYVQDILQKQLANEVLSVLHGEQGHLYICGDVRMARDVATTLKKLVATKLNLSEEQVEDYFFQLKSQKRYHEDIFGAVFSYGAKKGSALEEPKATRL
# TEST: Murine NOS-2 (iNOS) assay ([3H]-arginine to [3H]-citrulline conversion)
# EXPERIMENTAL CONTEXT: recombinant murine NOS-2, 20 min at 37° C., 10 uM L-[3H]arginine; ** mean of 2 determinations
// reported log10 of IC50 per item
# values: log10(IC50), units nM

{"COMPOUND": "Cc1ccc2oc(=O)cc(OCCCN)c2c1 [Example 14]", "log10 of IC50": 2.48}
{"COMPOUND": "CN(C)CCCOc1cc(=O)oc2ccc(Cl)cc12 [Example 22]", "log10 of IC50": 3.08}
{"COMPOUND": "NCCCCOc1cc(=O)oc2ccc(Cl)cc12 [Example 31]", "log10 of IC50": 3.00}
{"COMPOUND": "NCCCOc1cc(=O)oc2ccc(Br)cc12 [Example 11]", "log10 of IC50": 2.15}
{"COMPOUND": "N=C(N)NCCCOc1cc(=O)oc2ccc(Cl)cc12 [Example 28]", "log10 of IC50": 2.59}

Problem: Fill in: log10 of IC50 of NCCCOc1cc(=O)oc2ccc(Cl)cc12 [Example 1] is ___
Result: 1.78

Problem: Fill in: log10 of IC50 of O=c1cc(OCCC2CCCCN2)c2cc(Cl)ccc2o1 (centres unmarked) [Example 34] is ___
Result: 3.62

All values here come from patent US7538233B2.
